- Measured On: HLA-A*02:01
- Method: IEDB peptide-MHC binding, purified MHC/competitive/radioactivity; bounds were set here for any values at or beyond the usual limits of such assays
- Settings: source organism: Vaccinia virus WR
Lab note: cut-off is 100 nM. Strictly less in IC50 is label 1. Exactly 100 nM or more is label 0.

[[record]]
residues = "ELMYIFAAL"
assigned_label = "label 0"

[[record]]
residues = "YVHEGVSYEV"
assigned_label = "label 1"

[[record]]
residues = "IMETIDPVYI"
assigned_label = "label 0"

[[record]]
residues = "IIDREVVANV"
assigned_label = "label 1"

[[record]]
residues = "SLVSKHWELT"
assigned_label = "label 1"

[[record]]
residues = "GLRQQLEDI"
assigned_label = "label 0"

[[record]]
residues = "RVFKKIMSI"
assigned_label = "label 1"

[[record]]
residues = "NIISYIILFI"
assigned_label = "label 0"

[[record]]
residues = "LIAGIILLI"
assigned_label = "label 0"

[[record]]
residues = "ALIANIHNHM"
assigned_label = "label 0"

